Provenance of the data: PubChem BioAssay AID1919016

Test system: NCI-H196 complex spheroid growth, percent test/control
ASSAY NAME: Anticancer human tumor NCI-H196 cell line growth inhibition [AhR];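 also: seven days of drug exposure starting three days after plating; 100% = DMSO vehicle control wells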
CONDITION PARAMETERS: second compound 10 µM; first compound 10 µM; stronger effect = lower value
Excerpt: Multicellular complex tumor spheroid response to aryl hydrocarbon receptor antagonists in combination with a variety of drugs and investigational agents in selected tumor cell lines […] Compounds. […] If the clinical Cmax for an agent had not been determined, the highest concentration tested was 10 microM (Table 1). […]
Reported viability, T/C values for a set of compounds
QUANTITY NAME: viability, T/C (%)

[[record]]
compound = "NS(=O)(=O)OCC1CC(n2ccc3c(NC4CCc5ccccc54)ncnc32)CC1O (stereo not given) + Cc1cncc(-c2nc(NCCc3c[nH]c4ccccc34)c3ncn(C(C)C)c3n2)c1"
tested_target = "NCI-H196 complex spheroid growth, percent test/control"
result_units = "%"
quantitative_readout = 61.6

[[record]]
compound = "Nc1ccn(C2OC(CO)C(O)C2(F)F)c(=O)n1 (stereo not given) + CC(CO)NC(=O)c1cc(-c2ccc(Cl)cc2)nn(-c2cnn(C)c2)c1=O"
tested_target = "NCI-H196 complex spheroid growth, percent test/control"
result_units = "%"
quantitative_readout = 73.2

[[record]]
compound = "CC1(C)CCC(CN2CCN(c3ccc(C(=O)NS(=O)(=O)c4ccc(NCC5CCOCC5)c([N+](=O)[O-])c4)c(Oc4cnc5[nH]ccc5c4)c3)CC2)=C(c2ccc(Cl)cc2)C1 + Cc1cncc(-c2nc(NCCc3c[nH]c4ccccc34)c3ncn(C(C)C)c3n2)c1"
tested_target = "NCI-H196 complex spheroid growth, percent test/control"
result_units = "%"
quantitative_readout = 101

[[record]]
compound = "COc1cc(Nc2ncc3c(n2)-c2ccc(Cl)cc2C(c2c(F)cccc2OC)=NC3)ccc1C(=O)O + CC(CO)NC(=O)c1cc(-c2ccc(Cl)cc2)nn(-c2cnn(C)c2)c1=O"
tested_target = "NCI-H196 complex spheroid growth, percent test/control"
result_units = "%"
quantitative_readout = 131

[[record]]
compound = "COc1cccc2c1C(=O)c1c(O)c3c(c(O)c1C2=O)CC(O)(C(=O)CO)CC3OC1CC(N)C(O)C(C)O1 (stereo not given) + CC(CO)NC(=O)c1cc(-c2ccc(Cl)cc2)nn(-c2cnn(C)c2)c1=O"
tested_target = "NCI-H196 complex spheroid growth, percent test/control"
result_units = "%"
quantitative_readout = 2.67


====

System: NCI-H196 complex spheroid growth, percent test/control
ASSAY NAME: Anticancer human tumor NCI-H196 cell line growth inhibition [AhR];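 also: seven days of drug exposure starting three days after plating; 100% = DMSO vehicle control wells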
CONDITION PARAMETERS: second compound 3.16 µM; first compound 0.1 µM; stronger effect = lower value
# viability, T/C per record follows
QUANTITY NAME: viability, T/C (%)

[[record]]
molecule = "Nc1ncn(C2CC(O)C(CO)O2)c(=O)n1 (stereo not drawn) + CC(CO)NC(=O)c1cc(-c2ccc(Cl)cc2)nn(-c2cnn(C)c2)c1=O"
result_units = "%"
quantitative_readout = 104

[[record]]
molecule = "CC1COCCN1c1cc(-c2ccnn2C)c2ccnc(-c3ccn[nH]3)c2n1 (stereo not drawn) + Cc1cncc(-c2nc(NCCc3c[nH]c4ccccc34)c3ncn(C(C)C)c3n2)c1"
result_units = "%"
quantitative_readout = 88.8

[[record]]
molecule = "NS(=O)(=O)OCC1CC(n2ccc3c(NC4CCc5ccccc54)ncnc32)CC1O (stereo not drawn) + Cc1ccccc1N=Nc1ccc(NC(=O)c2ccnn2C)c(C)c1"
result_units = "%"
quantitative_readout = 90.7

[[record]]
molecule = "O=C(C=Cc1cccc(S(=O)(=O)Nc2ccccc2)c1)NO + CC(CO)NC(=O)c1cc(-c2ccc(Cl)cc2)nn(-c2cnn(C)c2)c1=O"
result_units = "%"
quantitative_readout = 109

[[record]]
molecule = "O=C(C=Cc1cccc(S(=O)(=O)Nc2ccccc2)c1)NO + Cc1cncc(-c2nc(NCCc3c[nH]c4ccccc34)c3ncn(C(C)C)c3n2)c1"
result_units = "%"
quantitative_readout = 99.5

[[record]]
molecule = "CC[C@@]1(O)C(=O)OCc2c1cc1n(c2=O)Cc2cc3c(CN(C)C)c(O)ccc3nc2-1 + Cc1ccccc1N=Nc1ccc(NC(=O)c2ccnn2C)c(C)c1"
result_units = "%"
quantitative_readout = 103

[[record]]
molecule = "NS(=O)(=O)OCC1CC(n2ccc3c(NC4CCc5ccccc54)ncnc32)CC1O (stereo not drawn) + CC(CO)NC(=O)c1cc(-c2ccc(Cl)cc2)nn(-c2cnn(C)c2)c1=O"
result_units = "%"
quantitative_readout = 83.7

[[record]]
molecule = "COc1cc(Nc2ncc3c(n2)-c2ccc(Cl)cc2C(c2c(F)cccc2OC)=NC3)ccc1C(=O)O + Cc1cncc(-c2nc(NCCc3c[nH]c4ccccc34)c3ncn(C(C)C)c3n2)c1"
result_units = "%"
quantitative_readout = 104

[[record]]
molecule = "O=C(c1cc(Cc2n[nH]c(=O)c3ccccc23)ccc1F)N1CCN(C(=O)C2CC2)CC1 + CC(CO)NC(=O)c1cc(-c2ccc(Cl)cc2)nn(-c2cnn(C)c2)c1=O"
result_units = "%"
quantitative_readout = 103

[[record]]
molecule = "COc1ccc([C@@H](O)c2cc(-c3ncnc4cc(N5CCOCC5)ccc34)c(F)cc2Cl)nn1 + Cc1ccccc1N=Nc1ccc(NC(=O)c2ccnn2C)c(C)c1"
result_units = "%"
quantitative_readout = 96.8

[[record]]
molecule = "Nc1ncn(C2CC(O)C(CO)O2)c(=O)n1 (stereo not drawn) + Cc1cncc(-c2nc(NCCc3c[nH]c4ccccc34)c3ncn(C(C)C)c3n2)c1"
result_units = "%"
quantitative_readout = 111

[[record]]
molecule = "Nc1ccn(C2OC(CO)C(O)C2(F)F)c(=O)n1 (stereo not drawn) + Cc1cncc(-c2nc(NCCc3c[nH]c4ccccc34)c3ncn(C(C)C)c3n2)c1"
result_units = "%"
quantitative_readout = 70.6

[[record]]
molecule = "CC1COCCN1c1cc(-c2ccnn2C)c2ccnc(-c3ccn[nH]3)c2n1 (stereo not drawn) + CC(CO)NC(=O)c1cc(-c2ccc(Cl)cc2)nn(-c2cnn(C)c2)c1=O"
result_units = "%"
quantitative_readout = 82.4


====

Entries annotated with measured viability, T/C
Test system: NCI-H196 complex spheroid growth, percent test/control
ASSAY NAME: Anticancer human tumor NCI-H196 cell line growth inhibition [AhR];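 also: seven days of drug exposure starting three days after plating; 100% = DMSO vehicle control wells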
CONDITION PARAMETERS: second compound 0.316 µM; first compound 3.16 µM; stronger effect = lower value
QUANTITY NAME: viability, T/C (%)

[[record]]
compound = "CC1COCCN1c1cc(C2(S(C)(=N)=O)CC2)nc(-c2ccnc3[nH]ccc23)n1 (stereo unspecified) + CC(CO)NC(=O)c1cc(-c2ccc(Cl)cc2)nn(-c2cnn(C)c2)c1=O"
quantity_name = "viability, T/C"
quantitative_readout = 89.8

[[record]]
compound = "O=C(c1cc(Cc2n[nH]c(=O)c3ccccc23)ccc1F)N1CCN(C(=O)C2CC2)CC1 + CC(CO)NC(=O)c1cc(-c2ccc(Cl)cc2)nn(-c2cnn(C)c2)c1=O"
quantity_name = "viability, T/C"
quantitative_readout = 105

[[record]]
compound = "Nc1ccn(C2OC(CO)C(O)C2(F)F)c(=O)n1 (stereo unspecified) + Cc1ccccc1N=Nc1ccc(NC(=O)c2ccnn2C)c(C)c1"
quantity_name = "viability, T/C"
quantitative_readout = 54.5

[[record]]
compound = "COc1cccc2c1C(=O)c1c(O)c3c(c(O)c1C2=O)CC(O)(C(=O)CO)CC3OC1CC(N)C(O)C(C)O1 (stereo unspecified) + Cc1cncc(-c2nc(NCCc3c[nH]c4ccccc34)c3ncn(C(C)C)c3n2)c1"
quantity_name = "viability, T/C"
quantitative_readout = 0.7

[[record]]
compound = "COc1cc(C2c3cc4c(cc3C(OC3OC5COC(C)OC5C(O)C3O)C3COC(=O)C23)OCO4)cc(OC)c1O (stereo unspecified) + Cc1ccccc1N=Nc1ccc(NC(=O)c2ccnn2C)c(C)c1"
quantity_name = "viability, T/C"
quantitative_readout = 91.2

[[record]]
compound = "CC(C)c1c(-c2ccccc2)nc2c(C#N)c[nH]n2c1=O + Cc1cncc(-c2nc(NCCc3c[nH]c4ccccc34)c3ncn(C(C)C)c3n2)c1"
quantity_name = "viability, T/C"
quantitative_readout = 113


====

System: NCI-H196 complex spheroid growth, percent test/control
ASSAY NAME: Anticancer human tumor NCI-H196 cell line growth inhibition [AhR];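 also: seven days of drug exposure starting three days after plating; 100% = DMSO vehicle control wells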
CONDITION PARAMETERS: second compound 0.1 µM; first compound 10 µM; stronger effect = lower value
QUANTITY NAME: viability, T/C

[[record]]
compound = "CC1COCCN1c1cc(C2(S(C)(=N)=O)CC2)nc(-c2ccnc3[nH]ccc23)n1 (centres undefined) + Cc1ccccc1N=Nc1ccc(NC(=O)c2ccnn2C)c(C)c1"
result = "69.7%"

[[record]]
compound = "O=C(C=Cc1cccc(S(=O)(=O)Nc2ccccc2)c1)NO + CC(CO)NC(=O)c1cc(-c2ccc(Cl)cc2)nn(-c2cnn(C)c2)c1=O"
result = "1.02%"

[[record]]
compound = "COc1cc(C2c3cc4c(cc3C(OC3OC5COC(C)OC5C(O)C3O)C3COC(=O)C23)OCO4)cc(OC)c1O (centres undefined) + CC(CO)NC(=O)c1cc(-c2ccc(Cl)cc2)nn(-c2cnn(C)c2)c1=O"
result = "101%"

[[record]]
compound = "O=C(c1cc(Cc2n[nH]c(=O)c3ccccc23)ccc1F)N1CCN(C(=O)C2CC2)CC1 + CC(CO)NC(=O)c1cc(-c2ccc(Cl)cc2)nn(-c2cnn(C)c2)c1=O"
result = "96.3%"

[[record]]
compound = "COc1cc(Nc2ncc3c(n2)-c2ccc(Cl)cc2C(c2c(F)cccc2OC)=NC3)ccc1C(=O)O + CC(CO)NC(=O)c1cc(-c2ccc(Cl)cc2)nn(-c2cnn(C)c2)c1=O"
result = "138%"

[[record]]
compound = "COc1ccc([C@@H](O)c2cc(-c3ncnc4cc(N5CCOCC5)ccc34)c(F)cc2Cl)nn1 + CC(CO)NC(=O)c1cc(-c2ccc(Cl)cc2)nn(-c2cnn(C)c2)c1=O"
result = "82.4%"

[[record]]
compound = "O=C(C=Cc1cccc(S(=O)(=O)Nc2ccccc2)c1)NO + Cc1cncc(-c2nc(NCCc3c[nH]c4ccccc34)c3ncn(C(C)C)c3n2)c1"
result = "0.47%"

[[record]]
compound = "O=C(c1cc(Cc2n[nH]c(=O)c3ccccc23)ccc1F)N1CCN(C(=O)C2CC2)CC1 + Cc1ccccc1N=Nc1ccc(NC(=O)c2ccnn2C)c(C)c1"
result = "102%"

[[record]]
compound = "COc1cccc2c1C(=O)c1c(O)c3c(c(O)c1C2=O)CC(O)(C(=O)CO)CC3OC1CC(N)C(O)C(C)O1 (centres undefined) + Cc1cncc(-c2nc(NCCc3c[nH]c4ccccc34)c3ncn(C(C)C)c3n2)c1"
result = "2.04%"

[[record]]
compound = "Nc1ccn(C2OC(CO)C(O)C2(F)F)c(=O)n1 (centres undefined) + Cc1ccccc1N=Nc1ccc(NC(=O)c2ccnn2C)c(C)c1"
result = "59.6%"

[[record]]
compound = "NS(=O)(=O)OCC1CC(n2ccc3c(NC4CCc5ccccc54)ncnc32)CC1O (centres undefined) + Cc1ccccc1N=Nc1ccc(NC(=O)c2ccnn2C)c(C)c1"
result = "70%"

[[record]]
compound = "Nc1ccn(C2OC(CO)C(O)C2(F)F)c(=O)n1 (centres undefined) + Cc1cncc(-c2nc(NCCc3c[nH]c4ccccc34)c3ncn(C(C)C)c3n2)c1"
result = "52%"

[[record]]
compound = "CC1COCCN1c1cc(C2(S(C)(=N)=O)CC2)nc(-c2ccnc3[nH]ccc23)n1 (centres undefined) + CC(CO)NC(=O)c1cc(-c2ccc(Cl)cc2)nn(-c2cnn(C)c2)c1=O"
result = "87%"

[[record]]
compound = "O=C(c1cc(Cc2n[nH]c(=O)c3ccccc23)ccc1F)N1CCN(C(=O)C2CC2)CC1 + Cc1cncc(-c2nc(NCCc3c[nH]c4ccccc34)c3ncn(C(C)C)c3n2)c1"
result = "87.4%"

